Recorded Ki, one value per entry.
measurement.target: hA2A AR (Homo sapiens, UniProt P29274)
Sequence (P29274 whole entry): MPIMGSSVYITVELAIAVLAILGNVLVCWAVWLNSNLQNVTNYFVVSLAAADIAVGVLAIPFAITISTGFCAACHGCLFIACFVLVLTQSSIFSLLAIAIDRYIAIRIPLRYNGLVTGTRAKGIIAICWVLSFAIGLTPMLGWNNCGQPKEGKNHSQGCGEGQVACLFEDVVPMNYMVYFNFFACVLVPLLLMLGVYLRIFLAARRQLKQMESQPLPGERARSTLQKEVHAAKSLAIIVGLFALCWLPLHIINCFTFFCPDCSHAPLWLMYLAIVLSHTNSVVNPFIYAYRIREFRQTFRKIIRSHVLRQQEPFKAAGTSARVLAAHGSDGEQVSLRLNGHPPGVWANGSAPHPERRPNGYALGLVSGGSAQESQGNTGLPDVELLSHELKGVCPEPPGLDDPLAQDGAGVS
protocol.details: Competition binding of [3H]ZM241385 to hA2A AR in CHO cell membranes
Could you give me the number in nM? Just the number is fine.

Input: Please report the measured Ki for Nc1nc(N2CCN(C(=O)c3ccco3)CC2)nc2sc(-c3ccco3)nc12 [compound 6]
Output: 137

Input: Look up Ki of Nc1nc(N2CCC(Cc3ccccc3)CC2)nc2sc(-c3ccco3)nc12 [compound 1] and report it.
Output: 594

Input: # return recorded Ki for input COCCN1CCC(CNc2nc(N)c3nc(-c4ccco4)sc3n2)CC1 [compound 18]
Output: 802

Input: Kindly indicate its recorded Ki. Item: COc1ccc(CN2CCC(CNc3nc(N)c4nc(-c5ccco5)sc4n3)CC2)cc1 [compound 20]
Output: 88

Input: Provide measured Ki value, entry: Nc1nc(NCC2CCN(Cc3ccccc3)CC2)nc2sc(-c3ccco3)nc12 [compound 19]
Output: 15.2
